Tested on: 349418-098-R-PDC complex spheroid viability
Test: Anticancer human tumor 349418-098-R-PDC patient-derived lung adenocarcinoma cell line growth inhibition
Details: second compound 1 µM; first compound 3.16 µM; stronger effect = lower value
parameter: viability, T/C

Data point: CC1(C)CCC(CN2CCN(c3ccc(C(=O)NS(=O)(=O)c4ccc(NCC5CCOCC5)c([N+](=O)[O-])c4)c(Oc4cnc5[nH]ccc5c4)c3)CC2)=C(c2ccc(Cl)cc2)C1 + NC1CCC(NC2CC2c2ccccc2)CC1 ; viability, T/C = 64.4%

Data point: CC(C)c1c(-c2ccccc2)nc2c(C#N)c[nH]n2c1=O + NC1CCC(NC2CC2c2ccccc2)CC1 ; viability, T/C = 104%

* * *

Quick reference for IC50 among some compounds
Test system: 349418-098-R-PDC complex spheroid viability
Experiment: Anticancer human tumor 349418-098-R-PDC cell line growth inhibition;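 further: spheroids exposed to agents for seven days before readout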
Conditions: curve of first compound; second compound 1 µM
Numeric answer only, unit nM assumed.

COc1cc(C2c3cc4c(cc3C(OC3OC5COC(C)OC5C(O)C3O)C3COC(=O)C23)OCO4)cc(OC)c1O (centres undefined) + NC1CCC(NC2CC2c2ccccc2)CC1: 86.5

Shift focus to the following entry.
Data point: COc1cc(Nc2ncc3c(n2)-c2ccc(Cl)cc2C(c2c(F)cccc2OC)=NC3)ccc1C(=O)O + NC1CC1c1ccc(-c2cccc(O)c2)cc1 ; IC50 = 53.9

* * *

System: 349418-098-R-PDC complex spheroid viability
Assay: Anticancer human tumor 349418-098-R-PDC cell line growth inhibition;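 further: spheroids exposed to agents for seven days before readout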;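 on viability, T/C: 100% = DMSO vehicle control wells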
Details: second compound 3.16 µM; first compound 0.0949 µM; stronger effect = lower value
Quick reference for viability, T/C among some molecules
Numeric answer only, unit % assumed.

NS(=O)(=O)OCC1CC(n2ccc3c(NC4CCc5ccccc54)ncnc32)CC1O (stereo unspecified) + NC1CC1c1ccc(-c2cccc(O)c2)cc1: 29.2
COc1cc(C2c3cc4c(cc3C(OC3OC5COC(C)OC5C(O)C3O)C3COC(=O)C23)OCO4)cc(OC)c1O (stereo unspecified) + NC1CC1c1ccc(-c2cccc(O)c2)cc1: 23.5
Nc1ccn(C2OC(CO)C(O)C2(F)F)c(=O)n1 (stereo unspecified) + NC1CCC(NC2CC2c2ccccc2)CC1: 4.08
CCc1c2c(nc3ccc(O)cc13)-c1cc3c(c(=O)n1C2)COC(=O)[C@]3(O)CC + NC1CCC(NC2CC2c2ccccc2)CC1: 1.05
Nc1ccccc1NC(=O)c1ccc(CNC(=O)OCc2cccnc2)cc1 + NC1CCC(NC2CC2c2ccccc2)CC1: 83.6

Shift focus to the following entry.
Data point: O=C(C=Cc1cccc(S(=O)(=O)Nc2ccccc2)c1)NO + NC1CCC(NC2CC2c2ccccc2)CC1 ; viability, T/C = 56.5

* * *

Tested on: 349418-098-R-PDC complex spheroid viability
Experiment: Anticancer human tumor 349418-098-R-PDC cell line growth inhibition; active = viability on the fitted dose curve at most 10% of control; inactive = the rest;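 further: spheroids exposed to agents for seven days before readout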
Conditions: second compound 3.16 µM; first compound 0.00316 µM
Output constraint: value belongs to T for active, F for inactive

Known results for compounds:
CC(C)CC(NC(=O)CNC(=O)c1cc(Cl)ccc1Cl)B1OC(=O)CC(CC(=O)O)(C(=O)O)O1 (stereo unspecified) + NC1CC1c1ccc(-c2cccc(O)c2)cc1: T
O=C(C=Cn1cnc(-c2cc(C(F)(F)F)cc(C(F)(F)F)c2)n1)NNc1cnccn1 + NC1CCC(NC2CC2c2ccccc2)CC1: F
O=C(C=Cn1cnc(-c2cc(C(F)(F)F)cc(C(F)(F)F)c2)n1)NNc1cnccn1 + NC1CC1c1ccc(-c2cccc(O)c2)cc1: F
Cn1ncnc1C1c2n[nH]c(=O)c3cc(F)cc(c23)NC1c1ccc(F)cc1 (stereo unspecified) + NC1CC1c1ccc(-c2cccc(O)c2)cc1: F
CC[C@@]1(O)C(=O)OCc2c1cc1n(c2=O)Cc2cc3c(CN(C)C)c(O)ccc3nc2-1 + NC1CCC(NC2CC2c2ccccc2)CC1: F

Request: Please share the test call associated with CC(C)CC(NC(=O)CNC(=O)c1cc(Cl)ccc1Cl)B1OC(=O)CC(CC(=O)O)(C(=O)O)O1 (stereo unspecified) + NC1CCC(NC2CC2c2ccccc2)CC1 .
Result: T

Request: Please share the test call associated with CC1COCCN1c1cc(-c2ccnn2C)c2ccnc(-c3ccn[nH]3)c2n1 (stereo unspecified) + NC1CCC(NC2CC2c2ccccc2)CC1 .
Result: F
